Test system: Plasmodium falciparum
Experiment: In vitro antimalarial activity against Plasmodium falciparum W2
Assay type: functional, organism-based
quantity-kind: IC50 (ng/mL)

Examples with answers:
CC1(C)N=C(N)N=C(N)N1OCCCSc1cc(Cl)ccc1Cl: 0.0254
CC1(C)NC(N)=NC(=N)N1OCCCOc1ccc(Cl)cc1Cl: 0.0379

P: CC1(C)N=C(N)N=C(N)N1OCCCOc1ccc(F)cc1F.Cl
Q: CC1(C)N=C(N)N=C(N)N1OCCCOc1cc(Cl)c(Cl)cc1Cl
Kindly compare P with Q and tell me which has the lower IC50 figure. Output the label that corresponds to your choice.
P
(P: 0.0285 ng/mL, Q: 0.047 ng/mL)
